B1: tRNA (parent)
chain: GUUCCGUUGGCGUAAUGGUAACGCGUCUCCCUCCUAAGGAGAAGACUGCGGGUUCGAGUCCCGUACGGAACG

- Variants of: B1
- assaySummary: yeast fitness, log relative to wild type (ln ratio); higher = fitter; tRNA-Arg(CCU), competitive growth, 37 C, 1 M NaCl
Each entry gets Not met if its yeast fitness (ln) stays under -0.1, and Met if its yeast fitness (ln) is -0.1 or above.

[[record]]
seqstring = "GCUCCGUUGGCGUAAUGGUAACGCGUCUCCCUCCUAAGGAGAAGAUUGCGGGUUCGAGUCCCGUAUGGAACG [U2C C46U C66U]"
cat = "Not met"

[[record]]
seqstring = "GUUCCUUUGGCGUAAUGGUAACGCGUCUCCCUCCUAAGGAGACGACUGCGGGUUCGAGUCCCGUAAGGAUUG [G6U A43C C66A A70U C71U]"
cat = "Not met"

[[record]]
seqstring = "GUUCCGUUGGCGUAAUGGUAACGCGUUUCCCUCCUAAGGAGAAGAUUGCGGGUUCGAGUCCCGUAUGGAGCG [C27U C46U C66U A70G]"
cat = "Not met"

[[record]]
seqstring = "AUUCCGUUGGCGUAAUGGUAACGCGUUUCCCUCCUAAGGAGACGAUUGCGGGUUCGAGUCCCGUAUGGGGUG [G1A C27U A43C C46U C66U A69G A70G C71U]"
cat = "Not met"

[[record]]
seqstring = "ACUCCUUUGGCGUAAUGGUAACGCGUCUCCCUCCUAAGGAGAAGAUUGCGGGUUCGAGUCCCGUAUGGAUUG [G1A U2C G6U C46U C66U A70U C71U]"
cat = "Not met"

[[record]]
seqstring = "AUUCCAUUGGCGUAAUGGUAACGCGUCUCCCUCCUAAGGAGACGACUGCGGGUUCGAGUCCCGUAUGGGUUG [G1A G6A A43C C66U A69G A70U C71U]"
cat = "Not met"

[[record]]
seqstring = "AUUCCGUUGGCGUAAUGGUAACGCGUUUCCCUCCUAAGGAGAAGAUUGCGGGUUCGAGUCCCGUAUGGAUUG [G1A C27U C46U C66U A70U C71U]"
cat = "Not met"

[[record]]
seqstring = "GGUCCAUUGGCGUAAUGGUAACGCGUUUCCCUCCUAAGGAGACGACUGCGGGUUCGAGUCCCGUACGGAACG [U2G G6A C27U A43C]"
cat = "Met"

[[record]]
seqstring = "GCUCCAUUGGCGUAAUGGUAACGCGUCUCCCUCCUAAGGAGAAGAUUGCGGGUUCGAGUCCCGUACGGAUCG [U2C G6A C46U A70U]"
cat = "Met"

[[record]]
seqstring = "GUUCCUUUGGCGUAAUGGUAACGCGUCUCCCUCCUAAGGAGACGAUUGCGGGUUCGAGUCCCGUACGGAAUG [G6U A43C C46U C71U]"
cat = "Not met"

[[record]]
seqstring = "GGUCCAUUGGCGUAAUGGUAACGCGUCUCCCUCCUAAGGAGAAGAUUGCGGGUUCGAGUCCCGUAAGGAUCG [U2G G6A C46U C66A A70U]"
cat = "Met"

[[record]]
seqstring = "GGUCCAUUGGCGUAAUGGUAACGCGUCUCCCUCCUAAGGAGAAGAUUGCGGGUUCGAGUCCCGUACGGGUCG [U2G G6A C46U A69G A70U]"
cat = "Not met"

[[record]]
seqstring = "GGUCCUUUGGCGUAAUGGUAACGCGUUUCCCUCCUAAGGAGACGAUUGCGGGUUCGAGUCCCGUACGGAAUG [U2G G6U C27U A43C C46U C71U]"
cat = "Not met"

[[record]]
seqstring = "GUUCCUUUGGCGUAAUGGUAACGCGUUUCCCUCCUAAGGAGAAGACUGCGGGUUCGAGUCCCGUACGGGAUG [G6U C27U A69G C71U]"
cat = "Not met"

[[record]]
seqstring = "GCUCCGUUGGCGUAAUGGUAACGCGUUUCCCUCCUAAGGAGAAGAUUGCGGGUUCGAGUCCCGUAAGGGGUG [U2C C27U C46U C66A A69G A70G C71U]"
cat = "Not met"

[[record]]
seqstring = "GGUCCAUUGGCGUAAUGGUAACGCGUUUCCCUCCUAAGGAGACGAUUGCGGGUUCGAGUCCCGUAUGGAUUG [U2G G6A C27U A43C C46U C66U A70U C71U]"
cat = "Not met"

[[record]]
seqstring = "GGUCCGUUGGCGUAAUGGUAACGCGUUUCCCUCCUAAGGAGAAGAUUGCGGGUUCGAGUCCCGUAAGGAACG [U2G C27U C46U C66A]"
cat = "Met"

[[record]]
seqstring = "AGUCCAUUGGCGUAAUGGUAACGCGUCUCCCUCCUAAGGAGACGAUUGCGGGUUCGAGUCCCGUAUGGAAUG [G1A U2G G6A A43C C46U C66U C71U]"
cat = "Not met"

[[record]]
seqstring = "AUUCCAUUGGCGUAAUGGUAACGCGUUUCCCUCCUAAGGAGACGAUUGCGGGUUCGAGUCCCGUAAGGAUCG [G1A G6A C27U A43C C46U C66A A70U]"
cat = "Not met"

[[record]]
seqstring = "GGUCCAUUGGCGUAAUGGUAACGCGUUUCCCUCCUAAGGAGAAGAUUGCGGGUUCGAGUCCCGUAAGGGAUG [U2G G6A C27U C46U C66A A69G C71U]"
cat = "Not met"

[[record]]
seqstring = "AUUCCGUUGGCGUAAUGGUAACGCGUUUCCCUCCUAAGGAGACGAUUGCGGGUUCGAGUCCCGUACGGAGCG [G1A C27U A43C C46U A70G]"
cat = "Not met"

[[record]]
seqstring = "AUUCCUUUGGCGUAAUGGUAACGCGUCUCCCUCCUAAGGAGAAGAUUGCGGGUUCGAGUCCCGUAAGGAGUG [G1A G6U C46U C66A A70G C71U]"
cat = "Met"

